Item-by-item account of inhibition at 1 µg/mL
Molecular target: human recombinant type II PLA2 (=synovial PLA2) (Homo sapiens)
Sequence (P14555 21-144): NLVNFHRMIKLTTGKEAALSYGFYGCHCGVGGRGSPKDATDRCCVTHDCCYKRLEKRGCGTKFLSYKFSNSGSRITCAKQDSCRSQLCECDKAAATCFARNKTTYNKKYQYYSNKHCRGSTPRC
Assay: Inhibition of PLA2 activity (sPLA2 enzyme activity, in vitro)
Format: biochemical
Settings: concentration 1 μg/ml; means of 3 experiments (duplicate determinations)
measured_attribute: inhibition at 1 µg/mL (%)

compound: COc1ccc2c(c1)c(CC(=O)O)c(C)n2C(=O)c1ccc(Cl)cc1 [Indomethacin, reference compound]
measurement: 0
--
compound: CCCCCCCCOc1ccc2c(c1)COc1c(cc3c(=O)cc(C(=O)OCC)oc3c1CCC)C2=O
measurement: 17
--
compound: CCOC(=O)c1cc(=O)c2c3c(ccc2o1)C(=O)c1ccc(O)cc1CO3
measurement: 52
--
compound: CCOC(=O)c1cc(=O)c2cc3c(cc2o1)OCc1cc(O)ccc1C3=O
measurement: 73
